Measured values drawn from the supplement of paper PMC11451515 for this set.

tested on: SEM cells; assay: cell viability relative to DMSO control; higher = less cytotoxic; conditions: RPMI 5 mM glucose + 10% dialyzed FBS; 48 h; 0.19 µM
readout: cell viability (%)

1) CC(C)(Sc1cc(C(C)(C)C)c(O)c(C(C)(C)C)c1)Sc1cc(C(C)(C)C)c(O)c(C(C)(C)C)c1: 94.5
2) CCC(=O)O[C@@]1(CC[C@H]2[C@@H]3CCC/4=C/C(=O)CC[C@]4(C)[C@H]3CC[C@]12C)C(=O)CO: 91.7
3) OC[C@H]1OC(O)C[C@@H](O)[C@@H]1O (some centres not stated): 113
4) CCOc1ccccc1N/N=C1/C(=O)N(c2nc(-c3ccccc3)cs2)N=C1C: 97.4
5) c1coc(CNc2ncnc3nc[nH]c23)c1: 114
6) Nc1nccc(-c2ccc3noc(-c4ccc(Cl)cc4)c3c2)n1: 115
7) C[C@@H](Cc1cc2c(c(C(N)=O)c1)N(CCCO)CC2)NCCOc1ccccc1OCC(F)(F)F: 118
8) CC1(C)CCC(C)(C)c2cc(NC(=O)c3ccc(C(=O)O)cc3)ccc21: 93
9) COc1cc(N2CCN(C)CC2)ccc1Nc1nc(N)c(C(=O)c2c(Cl)cccc2Cl)s1: 114
10) COC(=O)[C@H](Cc1ccccc1)NC(=O)[C@@H](N)CC(=O)O: 122
11) CO[C@H]1C[C@@H]2CC[C@@H](C)[C@@](O)(O2)C(=O)C(=O)N2CCCC[C@H]2C(=O)O[C@H]([C@@H](C)C[C@@H]2CC[C@@H](O)[C@H](OC)C2)CC(=O)[C@H](C)/C=C(\C)[C@@H](O)[C@@H](OC)C(=O)[C@H](C)C[C@H](C)/C=C/C=C/C=C/1C: 81.3
12) O=C(O)c1cccc(-c2noc(-c3ccccc3F)n2)c1: 94.2
13) COC1=CC=C(C=C1)C/2=C(OC3O[C@@H](C)[C@H](O)[C@@H](O)[C@H]3O)/C(=O)C4=C(O2)C(=C(OC5O[C@H](CO)[C@@H](O)[C@H](O)[C@H]5O)C=C4O)CC=C(C)C (some centres not stated): 129
14) OC(=O)CNC(=O)\C1=C(/O)C2=CC=CC=C2N(CC3=CC=CC=C3)C1=O: 117
15) CN1CCC(CNc2ccc3ncc(-c4cccc(OC(F)(F)F)c4)n3n2)CC1: 87.3
16) CCCCCN(C)CCC(O)(P(=O)([O-])O)P(=O)(O)O: 87.9
17) NC[C@H](O)c1ccc(O)c(O)c1: 99.1
